Target: mouse TAAR1 (Mus musculus (Mouse), UniProt Q923Y8)
Sequence (Q923Y8 whole entry): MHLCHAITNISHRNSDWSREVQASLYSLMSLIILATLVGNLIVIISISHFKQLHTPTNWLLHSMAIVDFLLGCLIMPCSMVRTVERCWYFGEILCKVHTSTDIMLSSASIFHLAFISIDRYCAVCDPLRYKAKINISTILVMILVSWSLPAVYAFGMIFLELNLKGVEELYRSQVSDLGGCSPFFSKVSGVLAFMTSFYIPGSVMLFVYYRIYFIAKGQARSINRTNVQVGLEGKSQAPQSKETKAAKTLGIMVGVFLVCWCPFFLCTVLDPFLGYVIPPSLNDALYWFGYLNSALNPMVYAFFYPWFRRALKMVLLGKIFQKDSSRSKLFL
Assay: Radioligand binding assay on mouse TAAR1
Conditions: mouse TAAR1 (first value of the cell), HEK-293 membranes; read-out: Ki (μM) mouse/rat
readout type: Ki (µM)
Numbers only; they are read as µM.

Example cases with answers are listed next.
Find the recorded Ki belonging to COc1ccc(-c2cnc(Nc3ccc([C@H]4CNCCO4)cc3)nc2)cc1OC and report it.
0.0027

What do we get for Fc1cc([C@@H]2CNCCO2)ccc1Nc1ncc(C(F)(F)F)cn1 ?
0.0069

What do we get for Fc1cc([C@H]2CNCCO2)ccc1Nc1ncc(C(F)(F)F)cn1 ?
0.0057

What do we get for Clc1cncc(Nc2ccc([C@@H]3CNCCO3)cc2)n1 ?
0.005

What do we get for COCCOc1cnc(Nc2ccc([C@H]3CNCCO3)cc2)nc1 ?
0.0641

In the following, a different compound is considered.
Find the recorded Ki belonging to c1ccc(Cn2ccc(Nc3ccc([C@H]4CNCCO4)cc3)n2)cc1 and report it.
0.0016
